B1: library; a variant is named by its letters at N, in order (parent)
chain: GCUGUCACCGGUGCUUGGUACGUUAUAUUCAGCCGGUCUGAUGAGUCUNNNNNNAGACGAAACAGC

Variants of: B1
Assay: FACS-Seq fitted mean relative fluorescence mCherry/BFP without ligand (log10 relative fluorescence); HEK293T overexpressing SLC46A1; higher = higher reporter protein expression
Conditions: without (6R,S)-folinic acid; ligand present: no
Please use YES whenever FACS-Seq fitted mean (log10) is not below 0.4, and NO whenever it is.

## Task Is reported FACS-Seq fitted mean (log10) greater than or equal to 0.4 here: `GCUGUCACCGGUGCUUGGUACGUUAUAUUCAGCCGGUCUGAUGAGUCUGGAAUUAGACGAAACAGC`
## Result NO

## Task Determine whether measured FACS-Seq fitted mean (log10) meets or exceeds 0.4 for `GCUGUCACCGGUGCUUGGUACGUUAUAUUCAGCCGGUCUGAUGAGUCUUUUGCUAGACGAAACAGC`
## Result YES

## Task Evaluate `GCUGUCACCGGUGCUUGGUACGUUAUAUUCAGCCGGUCUGAUGAGUCUACGGAUAGACGAAACAGC` : FACS-Seq fitted mean (log10) at minimum 0.4?
## Result NO

## Task Entry `GCUGUCACCGGUGCUUGGUACGUUAUAUUCAGCCGGUCUGAUGAGUCUCAGCCUAGACGAAACAGC` : is its FACS-Seq fitted mean (log10) no less than 0.4?
## Result NO

## Task Assess whether reported FACS-Seq fitted mean (log10) for `GCUGUCACCGGUGCUUGGUACGUUAUAUUCAGCCGGUCUGAUGAGUCUAGACAGAGACGAAACAGC` sits at 0.4 or higher.
## Result YES

## Task Given `GCUGUCACCGGUGCUUGGUACGUUAUAUUCAGCCGGUCUGAUGAGUCUGAACAGAGACGAAACAGC` , state whether its FACS-Seq fitted mean (log10) is at least 0.4.
## Result YES

## Task Is it the case that `GCUGUCACCGGUGCUUGGUACGUUAUAUUCAGCCGGUCUGAUGAGUCUCAGUUCAGACGAAACAGC` has FACS-Seq fitted mean (log10) reaching or exceeding 0.4?
## Result NO

## Task Could you tell me if the measured FACS-Seq fitted mean (log10) of `GCUGUCACCGGUGCUUGGUACGUUAUAUUCAGCCGGUCUGAUGAGUCUAUAAACAGACGAAACAGC` reaches 0.4 or more?
## Result NO
